Test: Growth inhibition of human HEK293 cells at 10 uM after 24 hrs by MTT assay relative to control
Format: cell-based
Settings: read-out: GI
readout_type: inhibition at 24 h, 10 µM

Example molecules with recorded inhibition at 24 h, 10 µM:
1) CCOP(=O)(OCC)C(Nc1ccncc1)c1ccc(-c2ccncc2)cc1 (stereo not given) :: 1.9%
2) CCOP(=O)(OCC)C(Nc1ccc(Cl)c([N+](=O)[O-])c1)c1ccc(-c2ccncc2)cc1 (stereo not given) :: 3.4%
3) CCOP(=O)(OCC)C(Nc1nccs1)c1ccc(-c2ccncc2)cc1 (stereo not given) :: 2.5%
4) CCOP(=O)(OCC)C(Nc1ccc(F)c(Cl)c1)c1ccc(-c2ccncc2)cc1 (stereo not given) :: 1.2%

Consider now this further molecule.
Ask: Which value of inhibition at 24 h, 10 µM has been reported for CCOP(=O)(OCC)C(Nc1ccccc1)c1ccc(-c2ccncc2)cc1 (stereo not given) in the records?
Reply: 0%
